# tested.target: Cyt c (Equus caballus)
# Sequence (P00004 whole entry): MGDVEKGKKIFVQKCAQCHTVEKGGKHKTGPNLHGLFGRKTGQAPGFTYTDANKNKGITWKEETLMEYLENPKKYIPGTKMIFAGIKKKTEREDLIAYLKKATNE
# Format: biochemical, equine
endpoint.name: IC50

input: Indicate the recorded IC50 value for this compound: N[C@@H](CCC(=O)N[C@@H](CS)C(=O)NCC(=O)O)C(=O)O
output: 41 µM
